target: KRASwt (Homo sapiens); assay: Bio-Biochem-PPI-HTRF Ras-SOS1 interaction assay (KRAS wt); conditions: 5 nM
Sequence (P01116 1-188 isoform P01116-2): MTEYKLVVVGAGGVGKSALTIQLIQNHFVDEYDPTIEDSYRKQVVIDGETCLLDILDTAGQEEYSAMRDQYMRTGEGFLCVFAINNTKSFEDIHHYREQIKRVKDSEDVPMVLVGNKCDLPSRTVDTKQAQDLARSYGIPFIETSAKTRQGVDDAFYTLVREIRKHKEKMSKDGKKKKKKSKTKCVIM
pIC50: −log10 of the molar value.
measured metric: pIC50

Examples with answers:
compound	pIC50
N#Cc1c(N)sc2c(F)ccc(-c3c(Cl)cc4c(N5CCCCC6(CN(C(=O)[C@@H]7C[C@H]7C#N)C6)C5)nc(OC[C@@]56CCCN5C[C@H](F)C6)nc4c3F)c12	> 5.30
Nc1nc2c(-c3c(Cl)cc4c(N5CCNC6(CNC6)C5)nc(OC[C@@]56CCCN5C[C@H](F)C6)nc4c3F)ccc(F)c2s1	> 5.30
CC(C)NC(=O)N1CC2(CC(Nc3nc(OCC45CCCN4C[C@H](F)C5)nc4c(F)c(-c5ccc(F)c6sc(N)c(C#N)c56)c(Cl)cc34)C2)C1 (some centres unmarked)	> 5.30
N#Cc1c(N)sc2c(F)ccc(-c3c(Cl)cc4c(N5CCCCC6(CN(C(=O)N7CC(F)C7)C6)C5)nc(OC[C@@]56CCCN5C[C@H](F)C6)nc4c3F)c12	> 5.30
N#Cc1c(N)sc2c(F)ccc(-c3c(Cl)cc4c(N5CCCCC6(CN(C(=O)C7CCCN7)C6)C5)nc(OC[C@@]56CCCN5C[C@H](F)C6)nc4c3F)c12 (some centres unmarked)	> 5.30

Field request: pIC50 | item: N#Cc1c(N)sc2c(F)ccc(-c3c(Cl)cc4c(N5CCCCC6(CN(C(=O)C7C8CCOC87)C6)C5)nc(OC[C@@]56CCCN5C[C@H](F)C6)nc4c3F)c12 (some centres unmarked) > 5.30

Name the recorded pIC50 for N#Cc1c(N)sc2c(F)ccc(-c3c(Cl)cc4c(N5CCOC6(CN(C#N)C6)C5)nc(OC[C@@]56CCCN5C[C@H](F)C6)nc4c3F)c12 . > 5.30

Which pIC50 is listed for N#Cc1c(N)sc2c(F)ccc(-c3c(Cl)cc4c(N5CCCCC6(CN(C(=O)C7COC7)C6)C5)nc(OC[C@@]56CCCN5C[C@H](F)C6)nc4c3F)c12 ? > 5.30

Quick check: pIC50 of CN(C)CCC(=O)N1CC2(C1)CN(c1nc(OC[C@@]34CCCN3C[C@H](F)C4)nc3c(F)c(-c4ccc(F)c5sc(N)c(C#N)c45)c(Cl)cc13)CCO2 ? > 5.30

GET /values?readout=pIC50&item= CN(C)C/C=C/C(=O)N1CC2(C1)CN(c1nc(OC[C@@]34CCCN3C[C@H](F)C4)nc3c(F)c(-c4ccc(F)c5sc(N)nc45)c(Cl)cc13)CCO2 > 5.30

# pIC50 lookup, item CC(O)(C(=O)N1CC2(CCCCN(c3nc(OC[C@@]45CCCN4C[C@H](F)C5)nc4c(F)c(-c5ccc(F)c6sc(N)c(C#N)c56)c(Cl)cc34)C2)C1)C1CC1 (some centres unmarked) > 5.30
